Listed compounds paired with reported EC50
# study system: TLR1/TLR2 (Homo sapiens, UniProt O60603+Q15399)
# Sequence (Q15399 25-786): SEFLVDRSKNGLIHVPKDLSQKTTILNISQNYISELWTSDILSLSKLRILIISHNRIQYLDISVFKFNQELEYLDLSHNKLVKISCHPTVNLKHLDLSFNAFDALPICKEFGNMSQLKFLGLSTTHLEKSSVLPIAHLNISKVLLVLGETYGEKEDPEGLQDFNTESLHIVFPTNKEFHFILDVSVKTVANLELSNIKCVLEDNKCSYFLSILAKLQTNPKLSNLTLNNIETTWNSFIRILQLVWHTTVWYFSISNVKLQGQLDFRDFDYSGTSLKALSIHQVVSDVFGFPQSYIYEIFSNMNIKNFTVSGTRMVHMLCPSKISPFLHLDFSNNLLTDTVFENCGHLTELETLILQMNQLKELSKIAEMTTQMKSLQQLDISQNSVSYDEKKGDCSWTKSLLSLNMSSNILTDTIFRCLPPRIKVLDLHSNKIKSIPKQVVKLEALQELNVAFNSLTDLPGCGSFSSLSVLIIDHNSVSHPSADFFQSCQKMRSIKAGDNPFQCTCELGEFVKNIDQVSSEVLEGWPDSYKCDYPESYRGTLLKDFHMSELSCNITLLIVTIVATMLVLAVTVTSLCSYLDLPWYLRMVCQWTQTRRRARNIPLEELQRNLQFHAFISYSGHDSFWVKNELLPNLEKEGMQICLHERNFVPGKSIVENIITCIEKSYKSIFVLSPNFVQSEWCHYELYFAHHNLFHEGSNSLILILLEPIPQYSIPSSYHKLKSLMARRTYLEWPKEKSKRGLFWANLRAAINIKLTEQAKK
# Sequence (O60603 21-784): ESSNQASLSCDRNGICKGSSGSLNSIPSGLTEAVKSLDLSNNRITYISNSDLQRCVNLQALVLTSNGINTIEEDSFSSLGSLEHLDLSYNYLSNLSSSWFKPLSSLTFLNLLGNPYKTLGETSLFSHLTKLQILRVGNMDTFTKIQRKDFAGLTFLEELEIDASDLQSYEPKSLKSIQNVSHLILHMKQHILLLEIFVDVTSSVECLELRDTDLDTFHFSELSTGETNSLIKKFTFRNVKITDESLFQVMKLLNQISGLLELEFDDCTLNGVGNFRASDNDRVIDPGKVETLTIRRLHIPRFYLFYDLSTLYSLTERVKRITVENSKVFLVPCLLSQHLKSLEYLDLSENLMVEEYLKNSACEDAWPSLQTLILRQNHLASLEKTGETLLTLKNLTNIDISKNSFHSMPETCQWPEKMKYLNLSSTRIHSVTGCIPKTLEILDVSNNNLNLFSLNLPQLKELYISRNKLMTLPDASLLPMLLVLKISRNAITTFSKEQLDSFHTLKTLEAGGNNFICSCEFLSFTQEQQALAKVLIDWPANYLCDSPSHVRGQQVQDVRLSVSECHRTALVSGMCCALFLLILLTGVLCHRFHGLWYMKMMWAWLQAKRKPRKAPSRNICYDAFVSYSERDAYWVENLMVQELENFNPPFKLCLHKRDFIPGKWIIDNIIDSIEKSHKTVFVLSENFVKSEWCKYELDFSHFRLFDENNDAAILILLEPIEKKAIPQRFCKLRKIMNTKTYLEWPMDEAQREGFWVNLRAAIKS
# assay remarks: TNF-α release from PMA-differentiated human THP-1 cells (ELISA)
# applied conditions: read-out: EC50 (nM) (THP-1): EC50 TNF-α release from human THP-1 cells; Table 5
recorded endpoint: EC50 (nM)

[[record]]
smiles_repr = "CC[C@H](C)[C@H](NC(=O)OC(C)(C)C)C(=O)OCCCCCCCCCCCCNC(=O)[C@@H]1CN(C(=O)c2ccc(C(=O)N3C[C@@H](C(=O)N[C@H]4C[C@@H]4c4ccccc4)[C@H](C(=O)N[C@H]4C[C@@H]4c4ccccc4)C3)cc2)C[C@H]1C(=O)N[C@H]1C[C@@H]1c1ccccc1"
units_symbol = "nM"
experimental_result = 9

[[record]]
smiles_repr = "CC(C)(C)OC(=O)N[C@@H](CCCCNC(=O)OCC1c2ccccc2-c2ccccc21)C(=O)OCCCCCCCCCCCCNC(=O)[C@@H]1CN(C(=O)c2ccc(C(=O)N3C[C@@H](C(=O)N[C@H]4C[C@@H]4c4ccccc4)[C@H](C(=O)N[C@H]4C[C@@H]4c4ccccc4)C3)cc2)C[C@H]1C(=O)N[C@H]1C[C@@H]1c1ccccc1"
units_symbol = "nM"
experimental_result = 280

[[record]]
smiles_repr = "CC(C)(C)OC(=O)N[C@@H](COCc1ccccc1)C(=O)OCCCCCCCCCCCCNC(=O)[C@@H]1CN(C(=O)c2ccc(C(=O)N3C[C@@H](C(=O)N[C@H]4C[C@@H]4c4ccccc4)[C@H](C(=O)N[C@H]4C[C@@H]4c4ccccc4)C3)cc2)C[C@H]1C(=O)N[C@H]1C[C@@H]1c1ccccc1"
units_symbol = "nM"
experimental_result = 0.15


====

# study system: TLR1/TLR2 (Homo sapiens, UniProt O60603+Q15399)
# assay remarks: TNF-α release from PMA-differentiated human THP-1 cells (ELISA);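 note: cells exposed to graded compound concentrations for 4 h, TNF-α quantified in supernatant, LPS as positive and DMSO as negative control, values are duplicate means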
# applied conditions: read-out: EC50 (nM) (THP-1): EC50 TNF-α release from human THP-1 cells; Table 1
Listed compounds paired with reported EC50
recorded endpoint: EC50 (nM)

[[record]]
compound = "CC(C)(C)OC(=O)NCC(=O)NCCCCCCCCCCCCNC(=O)[C@@H]1CN(C(=O)c2ccc(C(=O)N3C[C@@H](C(=O)N[C@H]4C[C@@H]4c4ccccc4)[C@H](C(=O)N[C@H]4C[C@@H]4c4ccccc4)C3)cc2)C[C@H]1C(=O)N[C@H]1C[C@@H]1c1ccccc1 [Compound 18]"
study_system = "TLR1/TLR2 (Homo sapiens, UniProt O60603+Q15399)"
experimental_result = 0.33

[[record]]
compound = "O=C(NCCc1ccc(F)cc1)[C@@H]1CN(C(=O)c2ccc(C(=O)N3C[C@@H](C(=O)N[C@H]4C[C@@H]4c4ccccc4)[C@H](C(=O)N[C@H]4C[C@@H]4c4ccccc4)C3)cc2)C[C@H]1C(=O)N[C@H]1C[C@@H]1c1ccccc1 [Compound 25]"
study_system = "TLR1/TLR2 (Homo sapiens, UniProt O60603+Q15399)"
experimental_result = 0.5

[[record]]
compound = "NC(=O)CCCCCCCCCCCNC(=O)[C@@H]1CN(C(=O)c2ccc(C(=O)N3C[C@@H](C(=O)N[C@H]4C[C@@H]4c4ccccc4)[C@H](C(=O)N[C@H]4C[C@@H]4c4ccccc4)C3)cc2)C[C@H]1C(=O)N[C@H]1C[C@@H]1c1ccccc1 [Compound 12]"
study_system = "TLR1/TLR2 (Homo sapiens, UniProt O60603+Q15399)"
experimental_result = 0.9

[[record]]
compound = "CC(C)(C)OC(=O)CNC(=O)CCCCCCCCCCCNC(=O)[C@@H]1CN(C(=O)c2ccc(C(=O)N3C[C@@H](C(=O)N[C@H]4C[C@@H]4c4ccccc4)[C@H](C(=O)N[C@H]4C[C@@H]4c4ccccc4)C3)cc2)C[C@H]1C(=O)N[C@H]1C[C@@H]1c1ccccc1 [Compound 14]"
study_system = "TLR1/TLR2 (Homo sapiens, UniProt O60603+Q15399)"
experimental_result = 20

[[record]]
compound = "COC(=O)CCCCCNC(=O)[C@@H]1CN(C(=O)c2ccc(C(=O)N3C[C@@H](C(=O)N[C@H]4C[C@@H]4c4ccccc4)[C@H](C(=O)N[C@H]4C[C@@H]4c4ccccc4)C3)cc2)C[C@H]1C(=O)N[C@H]1C[C@@H]1c1ccccc1 [Compound 6]"
study_system = "TLR1/TLR2 (Homo sapiens, UniProt O60603+Q15399)"
experimental_result = 45

[[record]]
compound = "O=C(O)CNC(=O)CCCCCCCCCCCNC(=O)[C@@H]1CN(C(=O)c2ccc(C(=O)N3C[C@@H](C(=O)N[C@H]4C[C@@H]4c4ccccc4)[C@H](C(=O)N[C@H]4C[C@@H]4c4ccccc4)C3)cc2)C[C@H]1C(=O)N[C@H]1C[C@@H]1c1ccccc1 [Compound 15]"
study_system = "TLR1/TLR2 (Homo sapiens, UniProt O60603+Q15399)"
experimental_result = 200

[[record]]
compound = "CNC(=O)CCCCCCCCCCCNC(=O)[C@@H]1CN(C(=O)c2ccc(C(=O)N3C[C@@H](C(=O)N[C@H]4C[C@@H]4c4ccccc4)[C@H](C(=O)N[C@H]4C[C@@H]4c4ccccc4)C3)cc2)C[C@H]1C(=O)N[C@H]1C[C@@H]1c1ccccc1 [Compound 13]"
study_system = "TLR1/TLR2 (Homo sapiens, UniProt O60603+Q15399)"
experimental_result = 1

[[record]]
compound = "[N-]=[N+]=NCCCCCCCCCCCCNC(=O)[C@@H]1CN(C(=O)c2ccc(C(=O)N3C[C@@H](C(=O)N[C@H]4C[C@@H]4c4ccccc4)[C@H](C(=O)N[C@H]4C[C@@H]4c4ccccc4)C3)cc2)C[C@H]1C(=O)N[C@H]1C[C@@H]1c1ccccc1 [Compound 20]"
study_system = "TLR1/TLR2 (Homo sapiens, UniProt O60603+Q15399)"
experimental_result = 0.07


meta.source: patent US20250367166A1
